experiment: solvent given as SMILES; conditions: in C1CCOC1
Classify: 1 when emission maximum is strictly less than 500 nm; -1 when emission maximum is not.

compound	discrete_label
c1ccc(-c2nc(-c3ccccc3)nc(-n3c4ccccc4c4cc(-n5c6ccccc6c6ccccc65)ccc43)n2)cc1	-1
CN(C)c1ccc(C2=Cc3c4ccccc4c4ccccc4[n+]3[B-](F)(F)O2)cc1	-1
Cc1ccsc1-c1cc2c3cc(-c4sccc4C)c4nc(C(F)(F)C(F)(F)C(F)(F)F)nc5c(-c6sccc6C)cc(c6cc(-c7sccc7C)c7nc(C(F)(F)C(F)(F)C(F)(F)F)nc1c7c26)c3c45	-1
CCCCCCCCOc1ccc(C#Cc2ccc(C#Cc3ccc(OCCCCCCCC)c(OCCCCCCCC)c3)c3nc4c5ccccc5c5ccccc5c4nc23)cc1OCCCCCCCC	-1
Cn1c(/C=C/c2ccc(/C=C/c3nc4ccccc4[nH]3)cc2)[n+](C)c2ccccc21	-1
c1ccc(-c2cc(-c3ccc4ccc5cccc6ccc3c4c56)ccn2)nc1	1
C(=C\c1cccc(/C=C/c2c3ccccc3cc3ccccc23)c1)/c1ccncc1	1
Cn1c(=O)c(/N=N/c2cc(S(=O)(=O)O)ccc2C(=O)O)c(O)c2ccccc21	-1
Cc1cc(O)c(C(C)C)cc1/N=C/c1ccc(O)cc1	1
COc1ccc(C2=C3C(C)=CC(C)=[N+]3[B-](F)(F)n3c(/C=C/c4ccc(N(C)C)cc4)cc(C)c32)cc1	-1
F[B-]1(F)n2c(c(-c3ccccc3)c(-c3ccccc3)c2-c2ccccc2)C=C2C(c3ccccc3)=C(c3ccccc3)C(c3ccccc3)=[N+]21	-1
F[B-]1(F)N(c2ccccc2)C=Cc2cccc[n+]21	-1
c1ccc(-c2nn(-c3ccccc3)c3nc4ccc(N(c5ccccc5)c5ccccc5)cc4cc23)cc1	-1
NS(=O)(=O)c1ccc(N2N=C(c3ccc(O)cc3)CC2c2ccc(F)cc2)cc1 (stereo not given)	1
Cc1cc(C)cc(NC(=O)c2sc(Br)nc2C)c1	1
C1=C(c2ccccc2)C=C(c2ccccc2)/C1=C/C1CCCCC1	1
CCCCCCCCC1(CCCCCCCC)c2cc(-c3ccc(C=C4C(=O)c5ccccc5C4=O)cc3)ccc2-c2ccc(-c3ccc(C=C4C(=O)c5ccccc5C4=O)cc3)cc21	-1
O=C1c2ccccc2-c2ccc(N3CCOCC3)c3cccc1c23	-1
c1ccc(-c2nc(-c3ccccc3)nc(-n3c4ccccc4c4cccc(-n5c6ccccc6c6ccccc65)c43)n2)cc1	1
Cc1cc(C)c(B(c2c(C)cc(C)cc2C)c2cc3ccc4ccccc4c3c3c2cc(N(C)C)c2ccccc23)c(C)c1	-1
CC1CCC(O)(c2ccc(-c3cccs3)s2)CC1 (stereo not given)	1
CN(C)/C=N\c1ccc2c3c(cccc13)C(=O)c1ccccc1-2	-1
c1ccc(-c2ccc(-c3ccc(N(c4ccccc4)c4ccccc4)cc3)c3nsnc23)cc1	-1
Fc1ccc(-c2cc3c4c(c2)CCc2cc(-c5ccc(F)cc5)cc(c2-4)CC3)cc1	1
CC1=[N+]2C(=C(c3ccccc3)c3ccc(/C=C/c4ccc(C(=C(c5ccccc5)c5ccccc5)c5ccccc5)cc4)n3[B-]2(F)F)C=C1	-1
COc1ccccc1C1=[N+]2C(=Cc3c4cc5ccccc5cc4c(-c4ccccc4OC)n3[B-]2(F)F)c2cc3ccccc3cc21	-1
CC1=N/C(=C\c2ccccc2N(C)C)C(=O)N1C	-1
CN(C)c1ccc(C2=Cc3ccc4ccccc4[n+]3[B-](F)(F)O2)cc1	-1
O=Cc1ccc(-c2ccc(C3=CCCCC3)s2)s1	1
CCC1(CC)c2ccccc2-c2ccc(C#Cc3ccc4ccc5cccc6ccc3c4c56)cc21	1
C(=C\c1ncnc2ccccc12)/c1ccc(N2CCCCC2)cc1	-1
